test system: myocardium injury model of rats induced by ISO; experiment: Myocardium injury (myocardial ischemia) model of rats induced by ISO; assay type: in vivo, SD rats; conditions: myocardial tissue homogenate of rats with ISO myocardium injury, drug 0.76 mg/kg, n=8
measured_endpoint: Activity of CK (U/L)
Give the value, in units of U/L, as a plain number.

Query :: Quick one: Activity of CK of CC12CCC3C(CC=C4CC(OC(=O)CCC(=O)OC5CCC6(C)C(=CCC7C8CCC(=O)C8(C)CCC76)C5)CCC43C)C1CCC2=O (stereo not shown) ?
Result :: 270.41

Query :: Could you share which Activity of CK value was measured for C[C@]12CC[C@H](OC(=O)CCCCC(=O)O[C@H]3CC[C@@]4(C)C(=CC[C@@H]5[C@@H]4CC[C@]4(C)C(=O)CC[C@@H]54)C3)CC1=CC[C@@H]1[C@@H]2CC[C@]2(C)C(=O)CC[C@@H]12 ?
Result :: 221.58

Query :: Please look up its Activity of CK: C[C@]12CC[C@H](OC(=O)CC(=O)O[C@H]3CC[C@@]4(C)C(=CC[C@@H]5[C@@H]4CC[C@]4(C)C(=O)CC[C@@H]54)C3)CC1=CC[C@@H]1[C@@H]2CC[C@]2(C)C(=O)CC[C@@H]12
Result :: 186.55

Query :: Name the reported Activity of CK value associated with the compound C[C@]12CC[C@H](OC(=O)CCCC(=O)O[C@H]3CC[C@@]4(C)C(=CC[C@@H]5[C@@H]4CC[C@]4(C)C(=O)CC[C@@H]54)C3)CC1=CC[C@@H]1[C@@H]2CC[C@]2(C)C(=O)CC[C@@H]12
Result :: 206.18
